# Tested on: NCI-H23
# assay name: NCI tumour cell line growth inhibition, 48 h
Calls of active or inactive are those of the source. No stated cut-off is given here; in the data, active = GI50 up to about 1.1 µM and inactive = higher.
Measured GI50, listed per entry.

Answered examples (2):
>>> observed_result("O=C(O)c1ccccc1/C=N\\N=C1NCCCCN1")
"> 100 µM (inactive)"
>>> observed_result("O=C1N[C@@H](c2c[nH]c3cc(Br)ccc23)C(=O)N[C@H]1c1c[nH]c2cc(Br)ccc12")
"> 100 µM (inactive)"

Notebook: `Cc1ccc(-c2nnc(SCC(=O)O)[nH]2)cc1` , GI50 read as > 100 µM (inactive)

Notebook: `C#CCn1c(=O)c(C)cn(/C(=C/C(=O)OCC)C(=O)OCC)c1=O` , GI50 read as 9.57 µM (inactive)

Notebook: O=C(Nc1ncc([N+](=O)[O-])s1)c1ccccc1O [TIZOXANIDE] , GI50 read as 12.5 µM (inactive)

Notebook: `O=C(NC(C(F)(F)F)(C(F)(F)F)P(=O)(Cc1ccccc1)Cc1ccccc1)C(C(F)(F)F)C(F)(F)F` , GI50 read as 19.7 µM (inactive)

Notebook: CCc1ccc(/C=C/C(=O)C2CN(CC)CCC2(O)/C=C/c2ccc(CC)cc2)cc1 (stereo unspecified) , GI50 read as 4.61 µM (inactive)

Notebook: CC(O)c1cc2c(s1)C(=O)c1ccsc1C2=O (stereo unspecified) , GI50 read as 0.0169 µM (active)

Notebook: `O=C(O)c1cc(/N=N/c2ccc([As](=O)(O)O)cc2)ccc1O` , GI50 read as > 100 µM (inactive)

Notebook: `O=C(Nc1ccccc1)N1CCN(C(=O)Nc2ccccc2)C1=S` , GI50 read as 22.3 µM (inactive)

Notebook: `CCCCSc1nsc(N(C(=O)c2ccccc2)C(=O)c2ccccc2)n1` , GI50 read as 30.1 µM (inactive)

---

Measured GI50, listed per entry.
# System: NCI-H23
# assay name: NCI tumour cell line growth inhibition, 48 h
Active and inactive are the calls of the source. Cut-off read from the data, not from the text of the source: active = GI50 up to about 1.1 µM and inactive = higher.

Answered examples (5):
>>> observed_result("N#CCCN(CCC#N)c1ccc(/C=C2\\SC(=S)NC2=O)cc1")
"> 100 µM (inactive)"
>>> observed_result("CC(C)/C(Cl)=N/OC(=O)Nc1ccc(F)c(Cl)c1")
"14.2 µM (inactive)"
>>> observed_result("N#CC1(Nc2ccc(-c3ccc(NC4(C#N)CCCC4)cc3)cc2)CCCC1")
"> 100 µM (inactive)"
>>> observed_result("O=C(Sc1c(-c2ccccc2)c(=O)n(-c2ccccc2)c(=S)n1-c1ccccc1)c1cccs1")
"> 100 µM (inactive)"
>>> observed_result("O=[N+]([O-])c1c(O)c2nonc2c2nn(-c3ccccc3)nc12")
"> 100 µM (inactive)"

Notebook: `CCCCCCCCC(=O)NCCCNCCCNC(=O)CCCCCCCC` , GI50 read as 15.7 µM (inactive)

Notebook: CN1C(=O)C2(Cc3cn(C45CC67SSC(CO)(C(=O)N6C4Nc4ccccc45)N(C)C7=O)c4ccccc34)SSC1(CO)C(=O)N2C (stereo unspecified) , GI50 read as < 0.01 µM (active)

Notebook: `Cn1c(=O)c2c(-c3ccccc3)onc2n(C)c1=O` , GI50 read as 14 µM (inactive)

Notebook: `N=C(N)NS(=O)(=O)c1ccc(Nc2c3ccccc3nc3c(C(=O)NC(CO)(CO)CO)cccc23)cc1` , GI50 read as 36.5 µM (inactive)

---

# Tested on: EKVX
# assay name: NCI tumour cell line growth inhibition, 48 h
Active and inactive are the calls of the source. Cut-off read from the data, not from the text of the source: active = GI50 up to about 1.1 µM and inactive = higher.
Measured GI50, listed per entry.

>>> observed_result("O=C(O)CCC(=O)Nc1ccc2c(c1)S(=O)(=O)N(CC(=O)O)C2=O")
"> 100 µM (inactive)"
>>> observed_result("O=C(O)CCNS(=O)(=O)c1ccc(NC(=O)c2ccccc2)cc1")
"> 100 µM (inactive)"

// moving on: another record for GI50
Notebook: O=C1C=CC2(CCCCCCC2=O)CC1 (stereo not given) , GI50 read as > 100 µM (inactive)

---

# System: HOP-62
# assay name: NCI tumour cell line growth inhibition, 48 h
Active and inactive are the calls of the source. Cut-off read from the data, not from the text of the source: active = GI50 up to about 1.1 µM and inactive = higher. Where a SMILES comes first, the peptide text is derived from it. [ ]: non-standard residue; d: D form. The star is where a group is joined. ξ: configuration not given here. Propanoyl(3-(4-MeO-Ph)) = COc1ccc(CCC(=O)*)cc1; Thr(3ξ) = CC(O)[C@H](N)C(=O)O; dNMeL = CN[C@H](CC(C)C)C(=O)O; OBn = c1ccc(CO*)cc1; ξLac = CC(O)C(=O)O
Answer with one of the outcomes given here: active, inactive

# count of solved cases: 5
>>> class_assignment("CC(C)c1ccc2c(c1)[C@@]1(C)CC[C@H](C)C(C)(C)C1CC2 (stereo not given in full)")
"inactive"
>>> class_assignment("O=c1c2cc(Br)ccc2[nH]c(=S)n1-c1ccccc1")
"inactive"
>>> class_assignment("Brc1ccc(C2C3CSc4ccccc4C3=NN2c2ccccc2)cc1 (stereo not given)")
"inactive"
>>> class_assignment("OCC1OC(Oc2cc(O)cc(/C=C\\c3ccc(O)cc3)c2)C(O)C(O)C1O (stereo not given)")
"inactive"
>>> class_assignment("O=C1N[C@@H](c2c[nH]c3cc(Br)ccc23)C(=O)N[C@H]1c1c[nH]c2cc(Br)ccc12")
"inactive"

[Q] Which result was noted for this compound in the test: CCOC(=O)C1(Cc2c[nH]c3ccccc23)C(O)CCCN1C(C)=O (stereo not given)
[A] inactive

[Q] Which result was noted for this compound in the test: `COc1ccc(Nc2nc3ccc(C(F)(F)F)cc3nc2-c2ccccc2)cc1OC`
[A] inactive

[Q] Which result was noted for this compound in the test: COc1ccc(CCC(=O)OC(C)[C@H](NC(=O)[C@@H](CC(C)C)N(C)C(=O)[C@@H]2CCCN2C(=O)C(C)O)C(=O)OCc2ccccc2)cc1 (stereo not given in full) (H-[ξLac]P[dNMeL][Thr(3ξ)](Propanoyl(3-(4-MeO-Ph)))-OBn)
[A] inactive

[Q] Which result was noted for this compound in the test: NC1CC(=O)c2c(Br)csc21 (stereo not given)
[A] inactive

[Q] Which result was noted for this compound in the test: `CC1=Nn2c(nnc2-c2ccc(Cl)cc2)NC(C)(C)C1`
[A] inactive

[Q] Which result was noted for this compound in the test: NC(CCCC(N)P(=O)(O)O)C(=O)O (stereo not given)
[A] inactive

---

Measured GI50, listed per entry.
# Test system: U-251
# assay name: NCI tumour cell line growth inhibition, 48 h
Calls of active or inactive are those of the source. Rule as the data show it: active = GI50 up to about 1.1 µM and inactive = higher.

Notebook: `Cc1ccc2c(c1)SSSSS2` , GI50 read as 34.3 µM (inactive)

Notebook: `O=P1(N(CCCl)CCCl)Oc2c(Cl)cc(Cl)c(Cl)c2Cc2c(Cl)c(Cl)cc(Cl)c2O1` , GI50 read as 96.6 µM (inactive)

Notebook: Cc1ccc(NC(c2ccccc2)c2ccc3cccnc3c2O)cc1 (stereo unspecified) , GI50 read as 2.82 µM (inactive)

---

# Test system: U-251
# assay name: NCI tumour cell line growth inhibition, 48 h
Activity calls are given as the source filed them. Rule as the data show it: active = GI50 up to about 1.1 µM and inactive = higher.
Answer with one of the outcomes given here: true (active), false (inactive)

# count of solved cases: 5
>>> class_assignment("Cc1cccc2c(N)c3cccc(C(=O)NCCN4CCOCC4)c3nc12")
"true"
>>> class_assignment("COc1cc2c(c(N)c1OC)C(=O)/C(=C/c1cc(C)c(O)c(C)c1)C2")
"true"
>>> class_assignment("COc1ccc2cc(CN3CCC(C4CCNCC4)CC3)ccc2c1")
"false"
>>> class_assignment("N#CC(c1nc2ccccc2s1)c1nc(Cl)ncc1Br (stereo not given)")
"false"
>>> class_assignment("CC1=C(C(=O)CC(=O)C(=O)Nc2ccc(Cl)cc2C)Sc2ccccc2N1")
"false"

[Q] Which result was noted for this molecule in the test: `Nn1c(S)nnc1C12CC3CC(CC(C3)C1)C2`
[A] false

[Q] Which result was noted for this molecule in the test: `CCCCCOc1ccc(/C=N\c2ccc(CCc3ccc(/N=C/c4ccc(OCCCCC)cc4)cc3)cc2)cc1`
[A] false

[Q] Which result was noted for this molecule in the test: CCOC(=O)NC(=O)c1cn(C(CC)COC(=O)NCCCCCCNC(=O)OCC(CC)n2cc(C(=O)NC(=O)OCC)c(=O)[nH]c2=O)c(=O)[nH]c1=O (stereo not given)
[A] false

[Q] Which result was noted for this molecule in the test: CC(O)c1cc2c(s1)C(=O)c1c(C(C)O)csc1C2=O (stereo not given)
[A] true

[Q] Which result was noted for this molecule in the test: `Cn1c2ccc3cc2c(=S)c2cc(ccc21)OCCOCCOCCOCCOCCO3`
[A] false

---

Measured GI50, listed per entry.
# Test system: NCI-H23
# assay name: NCI tumour cell line growth inhibition, 48 h
Activity calls are given as the source filed them. Cut-off read from the data, not from the text of the source: active = GI50 up to about 1.1 µM and inactive = higher.

Answered examples (5):
>>> observed_result("C/C(=N\\NC1=NCCN1)c1cn(C2=NCCN2)nc1C")
"> 100 µM (inactive)"
>>> observed_result("Cc1ccc2c(c1)SSSSS2")
"20.8 µM (inactive)"
>>> observed_result("Cc1cc2cc3c(O)nc(O)nc3nc2cc1C")
"> 100 µM (inactive)"
>>> observed_result("CC1=C(C#N)C2C(=C(N)Oc3ccccc32)C(N)=N1 (configuration not stated)")
"> 10 µM (inactive)"
>>> observed_result("CC(CO)(CO)/N=C/c1cc(I)cc(I)c1O")
"21.8 µM (inactive)"

Notebook: `CCCCNc1nc(SC)nc2[nH]cnc12` , GI50 read as > 100 µM (inactive)

Notebook: `Nc1c(C(=O)N/N=C/c2ccccc2)sc(=S)n1-c1ccccc1` , GI50 read as > 100 µM (inactive)
